Assay: solvent given as SMILES
Settings: in CCCCCC
Quick reference for solvation free energy, 298 K among some compounds

// solved cases for solvation free energy, 298 K follow
Task item: Would you kindly share the measured solvation free energy, 298 K for CCCOC(C)=O ?
Reply: -4.03 kcal/mol

Task item: How about Clc1cc(Cl)cc(Cl)c1 ?
Reply: -6.96 kcal/mol

Task item: How about C1COCCO1 ?
Reply: -4.06 kcal/mol

Task item: How about CCCCCl ?
Reply: -4.05 kcal/mol

Task item: How about CCOC(C)(C)C ?
Reply: -4.07 kcal/mol

Next:
Task item: Would you kindly share the measured solvation free energy, 298 K for CCCCCCCCCC ?
Reply: -6.85 kcal/mol

Task item: How about CC(C)CCO ?
Reply: -4.05 kcal/mol

====

Quick reference for solvation free energy, 298 K among some compounds
Test: solvent given as SMILES
Conditions: in CC(C)O
Numbers only here, please. The scale is kcal/mol.

// solved cases for solvation free energy, 298 K follow
Task item: Would you kindly share the measured solvation free energy, 298 K for O=C(O)c1ccc(O)cc1 ?
Reply: -11.5

Task item: How about CCCl ?
Reply: -2.47

Task item: How about CC1CCCCC1 ?
Reply: -3.79

Next:
Task item: Would you kindly share the measured solvation free energy, 298 K for O=C(c1ccccc1)C(O)c1ccccc1 (stereo not given) ?
Reply: -14.6

Task item: How about CC(C)(C)Br ?
Reply: -3.23

Task item: How about COc1ccc2cc(C(C)C(=O)O)ccc2c1 (stereo not given) ?
Reply: -16.6

Task item: How about C=CC=C ?
Reply: -2.09

Task item: How about O=[N+]([O-])c1cccc(Cl)c1Cl ?
Reply: -8.56

Task item: How about CCCCCCCCCCO ?
Reply: -9.77

Task item: How about O=C(O)c1ccccc1 ?
Reply: -9.63

====

Assay: solvent given as SMILES
Details: in CCCCC(CC)CO
readout: solvation free energy, 298 K (kcal/mol)
Numbers only here, please. The scale is kcal/mol.

Task item: Would you kindly share the measured solvation free energy, 298 K for Clc1c(Cl)c(Cl)c(Cl)c(Cl)c1Cl ?
Reply: -9.86

Task item: How about C(=Cc1ccccc1)c1ccccc1 ?
Reply: -10

Turning now to a further record.
Task item: Would you kindly share the measured solvation free energy, 298 K for c1ccc2c(c1)ccc1ccccc12 ?
Reply: -9.87

====

Experiment: solvent given as SMILES
Conditions: in CCCCCl
readout: solvation free energy, 298 K (kcal/mol)
Numbers only here, please. The scale is kcal/mol.

Task item: Would you kindly share the measured solvation free energy, 298 K for CCCCOCC ?
Reply: -4.77

Task item: How about Nc1ccccc1 ?
Reply: -6.67

Task item: How about ClC(Cl)Cl ?
Reply: -4.08

Task item: How about O=C1CCCC1 ?
Reply: -5.46

====

Assay: solvent given as SMILES
Conditions: in OCCOCCOCCO
readout: solvation free energy, 298 K (kcal/mol)
Numbers only here, please. The scale is kcal/mol.

Task item: Would you kindly share the measured solvation free energy, 298 K for CCCCCCCCCC ?
Reply: -3.33

Task item: How about c1ccc2c(c1)CCCC2 ?
Reply: -6.07

Task item: How about CC1CCCCC1 ?
Reply: -2.44

====

Experiment: solvent given as SMILES
Settings: in CCCCCCCCCCCCCCCC
readout: solvation free energy, 298 K (kcal/mol)
Numbers only here, please. The scale is kcal/mol.

Task item: Would you kindly share the measured solvation free energy, 298 K for C=CC1CC=CCC1 (stereo unspecified) ?
Reply: -4.94

Task item: How about CCC ?
Reply: -1.42

Task item: How about OC1CCCCC1 ?
Reply: -4.89

Next:
Task item: Would you kindly share the measured solvation free energy, 298 K for C=CC=C ?
Reply: -2.1

Task item: How about ClC(Cl)=C(Cl)Cl ?
Reply: -4.88

Task item: How about COC(C)(C)C ?
Reply: -3.22

====

Assay: solvent given as SMILES
Details: in CCCC(C)O
readout: solvation free energy, 298 K (kcal/mol)
Numbers only here, please. The scale is kcal/mol.

// solved cases for solvation free energy, 298 K follow
Task item: Would you kindly share the measured solvation free energy, 298 K for Cc1cccc(C(=O)O)c1 ?
Reply: -10

Task item: How about O=C(c1ccccc1)C(O)c1ccccc1 (stereo not drawn) ?
Reply: -14.5

Task item: How about C=CC=C ?
Reply: -2.07

Task item: How about Clc1c(Cl)c(Cl)c(Cl)c(Cl)c1Cl ?
Reply: -9.45

Task item: How about CC(C)O ?
Reply: -4.85

Task item: How about COc1ccc2cc(C(C)C(=O)O)ccc2c1 (stereo not drawn) ?
Reply: -16.5

Next:
Task item: Would you kindly share the measured solvation free energy, 298 K for CC(C)C ?
Reply: -1.8

Task item: How about C(=Cc1ccccc1)c1ccccc1 ?
Reply: -9.91

Task item: How about Cc1c(C(=O)O)cc([N+](=O)[O-])cc1[N+](=O)[O-] ?
Reply: -15.9

Task item: How about COc1ccccc1C(=O)O ?
Reply: -10.8

Task item: How about c1ccc2c(c1)Cc1ccccc1-2 ?
Reply: -9.03

Task item: How about c1ccc2c(c1)ccc1ccccc12 ?
Reply: -9.79

Task item: How about CCCl ?
Reply: -2.36

====

Assay: solvent given as SMILES
Conditions: in O
Quick reference for solvation free energy, 298 K among some compounds
Numbers only here, please. The scale is kcal/mol.

Task item: Would you kindly share the measured solvation free energy, 298 K for O=C(O)c1ccccc1O ?
Reply: -7.35

Task item: How about CC(Cl)Cl ?
Reply: -0.84

Task item: How about CC(C)C1CCC2(C)C3CC4C(C13)C42C (stereo unspecified) ?
Reply: 1.13

Task item: How about C=CCCCCCC ?
Reply: 1.93

Task item: How about Clc1ccc(-c2ccccc2Cl)cc1 ?
Reply: -2.58

Task item: How about CC(C)I ?
Reply: -0.46

====

Quick reference for solvation free energy, 298 K among some molecules
Assay: solvent given as SMILES
Settings: in C1CCOC1
Please answer using the number first and the unit second.

// solved cases for solvation free energy, 298 K follow
Task item: Would you kindly share the measured solvation free energy, 298 K for CCCc1ccccc1 ?
Reply: -6.63 kcal/mol

Task item: How about ClC(Cl)=C(Cl)Cl ?
Reply: -5.43 kcal/mol

Task item: How about Clc1c(Cl)c(Cl)c(Cl)c(Cl)c1Cl ?
Reply: -11 kcal/mol

Task item: How about O=C(O)c1ccccc1 ?
Reply: -9.93 kcal/mol

Task item: How about CC(C)O ?
Reply: -4.75 kcal/mol

Task item: How about CCN(CC)CC ?
Reply: -4.59 kcal/mol

Task item: How about CC(C)CCl ?
Reply: -4.39 kcal/mol

Task item: How about Ic1ccccc1 ?
Reply: -7.38 kcal/mol

Next:
Task item: Would you kindly share the measured solvation free energy, 298 K for Cc1c(C(=O)O)cc([N+](=O)[O-])cc1[N+](=O)[O-] ?
Reply: -17.5 kcal/mol

Task item: How about FC(F)(Cl)C(F)(Cl)Cl ?
Reply: -3.37 kcal/mol

Task item: How about COc1ccc2cc(C(C)C(=O)O)ccc2c1 (stereo unspecified) ?
Reply: -17.9 kcal/mol

====

Experiment: solvent given as SMILES
Conditions: in CN(C)C=O
readout: solvation free energy, 298 K (kcal/mol)
Numbers only here, please. The scale is kcal/mol.

// solved cases for solvation free energy, 298 K follow
Task item: Would you kindly share the measured solvation free energy, 298 K for CCCCCCCCCCC ?
Reply: -5.57

Task item: How about Cc1ccc(C(=O)O)cc1C ?
Reply: -11.6

Task item: How about C#CC=C ?
Reply: -3.28

Task item: How about FC(F)(F)C(F)(F)Cl ?
Reply: -1.54

Next:
Task item: Would you kindly share the measured solvation free energy, 298 K for C=CCC=C ?
Reply: -2.62

Task item: How about CC(C)(C)Br ?
Reply: -3.59

====

Test: solvent given as SMILES
Conditions: in Clc1ccccc1
readout: solvation free energy, 298 K (kcal/mol)
Numbers only here, please. The scale is kcal/mol.

Task item: Would you kindly share the measured solvation free energy, 298 K for CCC#N ?
Reply: -4.45

Task item: How about N ?
Reply: -1.36

Task item: How about O=C(O)c1ccccc1O ?
Reply: -8.36

Next:
Task item: Would you kindly share the measured solvation free energy, 298 K for CC(C)C ?
Reply: -2.25

Task item: How about CCCC ?
Reply: -2.32

Task item: How about OCCCl ?
Reply: -4.62

Task item: How about CCCl ?
Reply: -2.96

====

Test: solvent given as SMILES
Details: in CCCCCCC
readout: solvation free energy, 298 K (kcal/mol)
Numbers only here, please. The scale is kcal/mol.

// solved cases for solvation free energy, 298 K follow
Task item: Would you kindly share the measured solvation free energy, 298 K for CC(C)CCO ?
Reply: -3.96

Task item: How about CCCc1ccccc1 ?
Reply: -5.92

Turning now to a further record.
Task item: Would you kindly share the measured solvation free energy, 298 K for CCOC(C)(C)C ?
Reply: -3.98

Ref: the CombiSolv-Exp solvation set (Vermeire and Green 2021)
